Where do these numbers come from? They come from PubChem BioAssay (Tox21).

- Test details: A CellTox Green Cytotoxicity Assay to monitor cytotoxicity in HEK293 cells - 32 hour (AID 1224881); also: nearly all actives have a fitted effect of over 40% in size
- Test settings: CellTox Green fluorescence; series mostly up to 76.8 µM
Records with an inconclusive call do not appear. Activity calls are given as the source filed them. Calls follow the shape of the dose curve; as a rule, active = well fitted activation curve with a large enough effect in the repeat runs; inconclusive = weak or mixed curves; inactive = flat fitted curve, though single readings scatter.
Possible outcomes: active, inactive

>  <Molecule>
CC(COc1ccc(Oc2ccccc2)cc1)Oc1ccccn1 (stereo not given)

>  <Class label>
inactive

$$$$
>  <Molecule>
N#CCCC#N

>  <Class label>
inactive

$$$$
>  <Molecule>
COCC(=O)N(c1c(C)cccc1C)N1CCOC1=O

>  <Class label>
inactive

$$$$
>  <Molecule>
O=NN1CCCCC1

>  <Class label>
inactive

$$$$
>  <Molecule>
CC1(C)CON(Cc2ccccc2Cl)C1=O

>  <Class label>
inactive

$$$$
>  <Molecule>
CCOP(=S)(OCC)Oc1ncn(-c2ccccc2)n1

>  <Class label>
inactive

$$$$
>  <Molecule>
CCCCCCBr

>  <Class label>
inactive

$$$$
>  <Molecule>
O=C1OC(c2ccc(O)c(S(=O)(=O)O)c2)(c2ccc(O)c(S(=O)(=O)O)c2)c2c(Br)c(Br)c(Br)c(Br)c21

>  <Class label>
inactive

$$$$
>  <Molecule>
CC(C)[N+](=O)[O-]

>  <Class label>
inactive

$$$$
>  <Molecule>
CCC(C)n1c(=O)[nH]c(C)c(Br)c1=O (stereo not given)

>  <Class label>
inactive

$$$$
>  <Molecule>
N#CC(O)c1ccccc1 (stereo not given)

>  <Class label>
inactive

$$$$
>  <Molecule>
CC(Cl)(Cl)[N+](=O)[O-]

>  <Class label>
inactive

$$$$
>  <Molecule>
Nc1ccccc1Cl

>  <Class label>
inactive

$$$$
>  <Molecule>
CCC1(c2ccccc2)C(=O)NC(=O)NC1=O

>  <Class label>
inactive

$$$$
>  <Molecule>
CCOC(=O)/C=C(C)/C=C/C[C@@H](C)CCCC(C)C

>  <Class label>
inactive

$$$$
>  <Molecule>
COc1ncc(F)c2nc(S(=O)(=O)Nc3c(F)cccc3F)nn12

>  <Class label>
active

$$$$
>  <Molecule>
CNNC

>  <Class label>
inactive

$$$$
>  <Molecule>
Cc1ncc(CNC(=O)N(CCCl)N=O)c(N)n1

>  <Class label>
inactive

$$$$
>  <Molecule>
CN/C(=N\[N+](=O)[O-])NCC1CCOC1 (stereo not given)

>  <Class label>
inactive

$$$$
>  <Molecule>
CC(N)=S

>  <Class label>
inactive

$$$$
>  <Molecule>
Nc1n[nH]c(N)n1

>  <Class label>
inactive

$$$$
>  <Molecule>
N#Cc1c(Cl)cccc1Cl

>  <Class label>
inactive

$$$$
>  <Molecule>
CCOC(=O)C(c1c(O)c2ccccc2oc1=O)c1c(O)c2ccccc2oc1=O

>  <Class label>
inactive

$$$$
>  <Molecule>
O=C(Nc1ccccc1)c1ccccc1I

>  <Class label>
inactive

$$$$
>  <Molecule>
CNC(=O)Oc1ccc(N(C)C)c(C)c1

>  <Class label>
inactive

$$$$
>  <Molecule>
C=C(C)CN(CC)c1c([N+](=O)[O-])cc(C(F)(F)F)cc1[N+](=O)[O-]

>  <Class label>
inactive

$$$$
>  <Molecule>
ClCCOCOCCCl

>  <Class label>
inactive

$$$$
>  <Molecule>
CC(CC(C#N)(c1ccccc1)c1ccccc1)N(C)C (stereo not given)

>  <Class label>
inactive

$$$$
>  <Molecule>
C(CCOCC1CO1)COCC1CO1 (stereo not given)

>  <Class label>
inactive

$$$$
>  <Molecule>
BrCCCCCCBr

>  <Class label>
inactive

$$$$
